- assay-system: T1, Biotinylated human DLL3 (human, UniProt Q9NYJ7 27-492, biotinylated (site not stated))
- T1 construct: also called Delta-like ligand 3; Delta Like Canonical Notch Ligand 3
- T1 sequence (looked up): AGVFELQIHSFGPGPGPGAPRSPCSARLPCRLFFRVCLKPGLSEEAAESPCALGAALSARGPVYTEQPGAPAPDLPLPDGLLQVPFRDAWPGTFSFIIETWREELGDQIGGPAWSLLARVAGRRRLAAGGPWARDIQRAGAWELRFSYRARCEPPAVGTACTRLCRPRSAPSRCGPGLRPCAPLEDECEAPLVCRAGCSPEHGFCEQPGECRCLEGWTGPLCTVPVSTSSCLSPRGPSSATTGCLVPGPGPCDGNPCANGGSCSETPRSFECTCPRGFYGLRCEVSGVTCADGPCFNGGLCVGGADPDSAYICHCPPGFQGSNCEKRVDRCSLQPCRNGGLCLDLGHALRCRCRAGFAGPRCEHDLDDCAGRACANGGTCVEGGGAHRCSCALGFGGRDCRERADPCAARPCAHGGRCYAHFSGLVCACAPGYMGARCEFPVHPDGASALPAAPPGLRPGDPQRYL
- method: SPR, biotin-hDLL3 on SA chip
Bridge positions count the residues as written; N and C are the ends. Square brackets hold non-standard residues; d marks the D form. * marks the point of attachment. DOTA = O=C(O)CN1CCN(CC(=O)O)CCN(CC(=O)*)CCN(CC(=O)O)CC1; 1Nal = N[C@@H](Cc1cccc2ccccc12)C(=O)O; Chg = N[C@H](C(=O)O)C1CCCCC1; NMeA = CN[C@@H](C)C(=O)O; Nle = CCCC[C@H](N)C(=O)O
assay-readout: pKd
Friendly reminder that pKd comes from taking -log10 of the concentration in mol/L.

Recorded results for 2 binders are shown here.
# binder, assay-readout, observed-value
rows = [
    ("Ac-[Chg]SDC[1Nal]LQWNCPFD[dK](DOTA)-NH2 (disulfide 4-10) [Cpd #105]", "pKd", 9.23),
    ("Ac-MSDCW[Nle]QWNCPFD[dK](DOTA)-NH2 (disulfide 4-10) [Cpd #68]", "pKd", 7.80),
]

Now look at this one.
Value of pKd reported for the binder Ac-MSDCWLQWNC[NMeA]FD[dK](DOTA)-NH2 (disulfide 4-10; SMILES CSCC[C@H](NC(C)=O)C(=O)N[C@@H](CO)C(=O)N[C@@H](CC(=O)O)C(=O)N[C@H]1CSSC[C@@H](C(=O)N(C)[C@@H](C)C(=O)N[C@@H](Cc2ccccc2)C(=O)N[C@@H](CC(=O)O)C(=O)N[C@H](CCCCNC(=O)CN2CCN(CC(=O)O)CCN(CC(=O)O)CCN(CC(=O)O)CC2)C(N)=O)NC(=O)[C@H](CC(N)=O)NC(=O)[C@H](Cc2c[nH]c3ccccc23)NC(=O)[C@H](CCC(N)=O)NC(=O)[C@H](CC(C)C)NC(=O)[C@H](Cc2c[nH]c3ccccc23)NC1=O) [Cpd #49] is 7.71
